Examples of compounds with documented Relative activity (%) follow.
- Tested on: glycerol kinase (GK) produced by Streptomyces canus A 2408
- protocol-details: Specific activity for nucleotide
- Format: biochemical
- applied-conditions: 10 mM ATP replaced by the nucleotide; formed glycero-3-phosphate measured
- Procedure: (ii) specific activity for nucleotide: In assay method (i) hereinabove, 10 mM ATP is replaced by CTP, ITP, GTP and UTP and measures the formed glycero-3-phosphate.
readout-label: Relative activity (%)

{"columns": ["compound", "readout-label", "measurement"],
 "data": [
  ["O=c1[nH]cnc2c1ncn2[C@@H]1O[C@H](COP(=O)(O)OP(=O)(O)OP(=O)(O)O)[C@@H](O)[C@H]1O [ITP]", "Relative activity (%)", 47],
  ["O=c1ccn([C@@H]2O[C@H](COP(=O)(O)OP(=O)(O)OP(=O)(O)O)[C@@H](O)[C@H]2O)c(=O)[nH]1 [UTP]", "Relative activity (%)", 18],
  ["Nc1nc2c(ncn2[C@@H]2O[C@H](COP(=O)(O)OP(=O)(O)OP(=O)(O)O)[C@@H](O)[C@H]2O)c(=O)[nH]1 [GTP]", "Relative activity (%)", 19],
  ["Nc1ccn([C@@H]2O[C@H](COP(=O)(O)OP(=O)(O)OP(=O)(O)O)[C@@H](O)[C@H]2O)c(=O)n1 [CTP]", "Relative activity (%)", 92],
  ["Nc1ncnc2c1ncn2[C@@H]1O[C@H](COP(=O)(O)OP(=O)(O)OP(=O)(O)O)[C@@H](O)[C@H]1O [ATP]", "Relative activity (%)", 100]
]}

* * *

- Test system: glycerol kinase (GK) produced by Streptomyces canus A 2408
- protocol-details: Km value of GK for its substrates
- Format: biochemical
Examples of compounds with documented Km follow.
readout-label: Km (µM)

{"columns": ["compound", "readout-label", "measurement"],
 "data": [
  ["OCC(O)CO [glycerol]", "Km", 48],
  ["O=C[C@H](O)CO [D-glyceraldehyde]", "Km", 350],
  ["O=C(CO)CO [dihydroxyacetone]", "Km", 660],
  ["Nc1ncnc2c1ncn2[C@@H]1O[C@H](COP(=O)(O)OP(=O)(O)OP(=O)(O)O)[C@@H](O)[C@H]1O [ATP]", "Km", 200]
]}
